Sourced from patent US20220259289A1

Catalogue of ELISA HSA (RLU) readings, one per entry.
studySystem: T1, human serum albumin (human, UniProt P02768 25-609)
T1 construct: Negative control antigen of the screening ELISA; also called HSA
T1 sequence (P02768 25-609 limits assumed): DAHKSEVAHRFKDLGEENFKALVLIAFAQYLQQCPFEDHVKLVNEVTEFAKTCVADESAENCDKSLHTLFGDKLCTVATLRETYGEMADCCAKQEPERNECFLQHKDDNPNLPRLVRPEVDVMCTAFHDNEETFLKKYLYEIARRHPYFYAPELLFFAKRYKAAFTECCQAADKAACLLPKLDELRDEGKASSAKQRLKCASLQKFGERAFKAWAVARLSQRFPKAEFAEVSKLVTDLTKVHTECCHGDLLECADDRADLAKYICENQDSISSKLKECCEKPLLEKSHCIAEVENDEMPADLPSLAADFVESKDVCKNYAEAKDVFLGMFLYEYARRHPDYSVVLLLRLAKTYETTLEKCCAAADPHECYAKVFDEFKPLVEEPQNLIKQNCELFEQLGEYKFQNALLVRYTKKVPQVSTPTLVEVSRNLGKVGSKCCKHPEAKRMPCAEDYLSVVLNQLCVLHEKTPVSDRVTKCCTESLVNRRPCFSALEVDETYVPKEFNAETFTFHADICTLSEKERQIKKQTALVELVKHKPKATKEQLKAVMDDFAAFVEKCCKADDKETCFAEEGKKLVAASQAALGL
assayProcedure: ELISA, bacterial lysate on plate-bound antigen, luminescence
Protocol: Streptavidin-coated Maxisorp plates (Nunc catalog 436110) were blocked for 1 h in Starting Block T20 (Pierce) and then coated with biotinylated CD137 (using same antigen as in panning) or negative controls (an unrelated Fc-fused recombinant protein and human serum albumin) for 1 h. Plates were rinsed with TBST and diluted lysate was applied to plates for 1 h. […]
Express your answer in RLU, writing the number without its unit.

The cases that follow already have their ELISA HSA (RLU) on record.
binder	measValue
ISOP120ER5P1A8 (designed binder, not shown: small tags and cut ends, FN3 domain (Centyrin); tested as E. coli lysate) LPAPKNLVVSRVTEDSARLSWTAPDAAFDSFDIYYFEHPVGGEAIVLTVPGSERSYDLTGLKPGTEYLVTIYGVKGGYLSMPLSAIFTT	320
ISOP120AR5P1B5 (designed binder, not shown: small tags and cut ends, FN3 domain (Centyrin); tested as E. coli lysate) LPAPKNLVVSRVTEDYARLSWKYGEHIIWFDSFLIQYQESEKVGEAIVLTVPGSERSYDLTGLKPGTEYTVSIYGVKGQHDHDSNPLSAIFTT	320
ISOP120HR5P1B4 (designed binder, not shown: small tags and cut ends, FN3 domain (Centyrin); tested as E. coli lysate) LPAPKNLVVSRVTEDSARLSWTAPDAAFDSFSIYYGEYYNLGEAIVLTVPGSERSYDLTGLKPGTEYVVTIYGVKGGGYSNPLSAIFTT	320

// below: ELISA HSA (RLU) requested for another binder
What value of measured ELISA HSA (RLU) is listed for ISOP120BR5P1E8 (designed binder, not shown: small tags and cut ends, FN3 domain (Centyrin); tested as E. coli lysate) LPAPKNLVVSRVTEDSARLSWNGGEYWVPRFDSFLIQYQESEKVGEAIVLTVPGSERSYDLTGLKPGTEYTVSIYGVVWLQWISWTDSNPLSAIFTT ?
640
